assay: Metabolic stability in human hepatic microsome; assay type: in vitro ADME; conditions: microsomes, pH 7.4; human hepatic microsome, NADPH(+); read-out: CL NADPH(+)
Positions of bridges follow the written chain, without caps; N, C: chain ends. Non-standard residues stand in square brackets, D forms with d. Residues, ends and D or L forms follow the SMILES beside them. *: point of attachment. NMeF = CN[C@@H](Cc1ccccc1)C(=O)O; NMeL = CN[C@@H](CC(C)C)C(=O)O; NMeA = CN[C@@H](C)C(=O)O; Piperidide = C1CCN(*)CC1
recorded-endpoint: microsomal CLint at 1 uM (µL/min/mg)
One number for each entry, in µL/min/mg.

Returns the measured microsomal CLint at 1 uM for the input molecule. Input: CC[C@H](C)[C@H](NC(=O)[C@H](CC(C)C)N(C)C(=O)[C@@H]1CCCN1C(=O)[C@H](Cc1ccccc1)N(C)C(=O)[C@@H]1CC(=O)N[C@H](C(C)C)C(=O)N[C@@H](C)C(=O)N(C)[C@@H](Cc2ccccc2)C(=O)N(C)[C@@H](C)C(=O)N[C@@H](Cc2ccccc2)C(=O)N(C)[C@@H](CC(C)C)C(=O)N[C@@H]([C@@H](C)O)C(=O)N1)C(=O)N1CCCCC1 [DP-929] ([dV]A[NMeF][NMeA]F[NMeL]TD[NMeF]P[NMeL]I-Piperidide; lactam N-8)
49

----------
Consider the following compounds; for each one, report its microsomal CLint at 1 uM.
experiment: Metabolic stability in human hepatic microsome; assay type: in vitro ADME; details: human, microsomes, pH 7.4, CL NADPH(+)
Starred links: 1 amine or outer side, 2 acyl side, 3 side chain; linkers in the order of their positions; H or OH if unused. Positions of bridges follow the written chain, without caps; N, C: chain ends. Non-standard residues stand in square brackets, D forms with d. Residues, ends and D or L forms follow the SMILES beside them. *: point of attachment. NMeF = CN[C@@H](Cc1ccccc1)C(=O)O; NMeI = CC[C@H](C)[C@H](NC)C(=O)O; NMeβAla = CN(CCC(=O)[*:2])[*:1]; NMeL = CN[C@@H](CC(C)C)C(=O)O; NMeA = CN[C@@H](C)C(=O)O; Piperidide = C1CCN(*)CC1; β3hA = C[C@H](N)CC(=O)O
Give bare numbers, in µL/min/mg.

1) CC[C@H](C)[C@H]1C(=O)N(C)[C@@H](C)C(=O)N(C)[C@@H](Cc2ccccc2)C(=O)N[C@@H]([C@@H](C)O)C(=O)N(C)[C@@H](Cc2ccccc2)C(=O)N(C)[C@@H](CC(C)C)C(=O)N2CCC[C@H]2C(=O)N[C@@H](C)CC(=O)N[C@@H](C)C(=O)NCC(=O)N(C)[C@@H](CC(C)C)C(=O)N1C [DP-767] (cyclo(AG[NMeL][NMeI][NMeA][NMeF]T[NMeF][NMeL]P[β3hA])) : 34

Okay, next one:
Returns the measured microsomal CLint at 1 uM for the input compound. Input: CC[C@H](C)[C@@H]1NC(=O)[C@H](C)N(C)C(=O)[C@H](CC(C)C)N(C)C(=O)CCN(C)C(=O)C[C@@H](C(=O)N(C)[C@@H](Cc2ccccc2)C(=O)N[C@@H](C)C(=O)N2CCCCC2)NC(=O)[C@H](CC(C)C)N(C)C(=O)[C@H](Cc2ccccc2)N(C)C(=O)[C@H](Cc2ccccc2)N(C)C(=O)[C@H](C)N(C)C(=O)[C@H]([C@@H](C)O)NC(=O)[C@H](CC(C)C)N(C)C1=O [DP-281] ([NMeβAla][NMeL][NMeA]I[NMeL]T[NMeA][NMeF][NMeF][NMeL]D[NMeF]A-Piperidide; lactam N-11)
28

----------
assay: PAMPA (parallel artificial membrane permeability assay); assay type: in vitro ADME; details: PAMPA, pH 6.5
Positions of bridges follow the written chain, without caps; N, C: chain ends. Non-standard residues stand in square brackets, D forms with d. Residues, ends and D or L forms follow the SMILES beside them. *: point of attachment. NMeF = CN[C@@H](Cc1ccccc1)C(=O)O; NMeI = CC[C@H](C)[C@H](NC)C(=O)O; NMeL = CN[C@@H](CC(C)C)C(=O)O; NMeV = CN[C@H](C(=O)O)C(C)C; NMeA = CN[C@@H](C)C(=O)O; Piperidide = C1CCN(*)CC1; β3hA = C[C@H](N)CC(=O)O; Sar = CNCC(=O)O
Consider the following compounds; for each one, report its Papp at 18 hours, 50 µM.
Numbers only, in ×10⁻⁶ cm/s.

// worked examples, Papp at 18 hours, 50 µM included
1. CC(C)C[C@H]1C(=O)N(C)[C@@H](C(C)C)C(=O)N[C@@H](Cc2ccccc2)C(=O)N[C@H](C(=O)N(C)[C@@H](Cc2ccccc2)C(=O)N(C)[C@@H](Cc2ccccc2)C(=O)N[C@@H](C)C(=O)N2CCCCC2)CC(=O)N[C@@H](C)C(=O)N[C@@H](C(C)C)C(=O)N(C)[C@@H](CC(C)C)C(=O)N[C@@H]([C@@H](C)O)C(=O)N(C)[C@@H](Cc2ccccc2)C(=O)NCC(=O)N1C [DP-287] (AV[NMeL]T[NMeF]G[NMeL][NMeV]FD[NMeF][NMeF]A-Piperidide; lactam N-10) : 1.4
2. CC[C@H](C)[C@H]1C(=O)N(C)[C@@H](CC(C)C)C(=O)N[C@@H]([C@@H](C)O)C(=O)N2CCC[C@H]2C(=O)N[C@@H](Cc2ccccc2)C(=O)N[C@H](C(=O)N2CCCCC2)CC(=O)N(C)CC(=O)N(C)[C@@H](CC(C)C)C(=O)N[C@@H](Cc2ccccc2)C(=O)N[C@@H](CC(C)C)C(=O)NCC(=O)N1C [DP-106] ([Sar][NMeL]FLG[NMeI][NMeL]TPFD-Piperidide; lactam N-11) : 34

Okay, next one:
Returns the measured Papp at 18 hours, 50 µM for the input compound. Input: CC(C)C[C@H]1C(=O)N2CCC[C@H]2C(=O)N(C)[C@@H](CC(C)C)C(=O)N[C@@H](C)C(=O)N(C)[C@@H](C(C)C)C(=O)N[C@@H](C)CC(=O)N(C)[C@@H](C)C(=O)N[C@@H]([C@@H](C)O)C(=O)N(C)CC(=O)N(C)[C@@H](Cc2ccccc2)C(=O)N(C)[C@@H](Cc2ccccc2)C(=O)N1C [DP-768] (cyclo(A[NMeV][β3hA][NMeA]T[Sar][NMeF][NMeF][NMeL]P[NMeL]))
25

----------
assay: Metabolic stability in human hepatic microsome; assay type: in vitro ADME; details: microsomes, pH 7.4; human hepatic microsome, NADPH(+); read-out: CL NADPH(+)
Positions of bridges follow the written chain, without caps; N, C: chain ends. Non-standard residues stand in square brackets, D forms with d. Residues, ends and D or L forms follow the SMILES beside them. *: point of attachment. NMeF = CN[C@@H](Cc1ccccc1)C(=O)O; 3Pal = N[C@@H](Cc1cccnc1)C(=O)O; NMeL = CN[C@@H](CC(C)C)C(=O)O; NMeV = CN[C@H](C(=O)O)C(C)C; NMeA = CN[C@@H](C)C(=O)O; Piperidide = C1CCN(*)CC1; Sar = CNCC(=O)O
Consider the following compounds; for each one, report its microsomal CLint at 1 uM.
Numbers only, in µL/min/mg.

1) CC(C)C[C@@H]1NC(=O)[C@H](Cc2cccnc2)NC(=O)[C@H](Cc2ccccc2)N(C)C(=O)[C@H](CC(C)C)NC(=O)[C@H](CC(C)C)N(C)C(=O)[C@H](Cc2ccccc2)NC(=O)[C@H](CC(C)C)N(C)C(=O)[C@H](CC(C)C)N(C)C(=O)[C@H](Cc2ccccc2)NC(=O)CN(C)C(=O)C[C@@H](C(=O)N(C)[C@@H](Cc2ccccc2)C(=O)N[C@@H](C)C(=O)N2CCCCC2)NC1=O [DP-600] ([Sar]F[NMeL][NMeL]F[NMeL]L[NMeF][3Pal]LD[NMeF]A-Piperidide; lactam N-11) : 12

Okay, next one:
Returns the measured microsomal CLint at 1 uM for the input compound. Input: CC(C)C[C@H]1C(=O)N[C@@H](Cc2ccccc2)C(=O)N(C)[C@@H](C(C)C)C(=O)N[C@@H]([C@@H](C)O)C(=O)N[C@H](C(=O)N(C)[C@@H](Cc2ccccc2)C(=O)N(C)[C@@H](Cc2ccccc2)C(=O)N[C@@H](C)C(=O)N2CCCCC2)CC(=O)N(C)[C@@H](C)C(=O)N(C)[C@@H](C)C(=O)N[C@@H](C(C)C)C(=O)N(C)[C@@H](Cc2ccccc2)C(=O)NCC(=O)N1C [DP-456] ([NMeA][NMeA]V[NMeF]G[NMeL]F[NMeV]TD[NMeF][NMeF]A-Piperidide; lactam N-10)
29

----------
assay: Metabolic stability in human hepatic microsome; type: in vitro ADME; details: microsomes, pH 7.4; human hepatic microsome, NADPH(+); read-out: CL NADPH(+)
Positions of bridges follow the written chain, without caps; N, C: chain ends. Non-standard residues stand in square brackets, D forms with d. Residues, ends and D or L forms follow the SMILES beside them. *: point of attachment. NMeF = CN[C@@H](Cc1ccccc1)C(=O)O; NMeL = CN[C@@H](CC(C)C)C(=O)O; NMeA = CN[C@@H](C)C(=O)O; Piperidide = C1CCN(*)CC1; dNMeA = CN[C@H](C)C(=O)O
recorded-endpoint: microsomal CLint at 1 uM (µL/min/mg)
Give bare numbers, in µL/min/mg.

1) CC(C)C[C@H]1C(=O)N[C@@H](C(C)C)C(=O)N(C)[C@@H](CC(C)C)C(=O)N(C)[C@@H](CC(C)C)C(=O)N[C@H](C(=O)N(C)[C@@H](Cc2ccccc2)C(=O)N[C@@H](C)C(=O)N2CCCCC2)CC(=O)N[C@H](C(C)C)C(=O)N(C)[C@@H](CC(C)C)C(=O)N(C)[C@@H](Cc2ccccc2)C(=O)N(C)[C@@H](CC(C)C)C(=O)N[C@@H](Cc2c[nH]cn2)C(=O)N1C [DP-586] ([dV][NMeL][NMeF][NMeL]H[NMeL]V[NMeL][NMeL]D[NMeF]A-Piperidide; lactam N-10) : 15

Okay, next one:
Returns the measured microsomal CLint at 1 uM for the input compound. Input: CC[C@H](C)[C@@H]1NC(=O)[C@H](C)N(C)C(=O)[C@H](CC(C)C)N(C)C(=O)[C@H](Cc2ccccc2)NC(=O)[C@H](CC(C)C)N(C)C(=O)[C@H](CC(C)C)N(C)C(=O)[C@H](C)N(C)C(=O)[C@H](Cc2ccccc2)N(C)C(=O)[C@@H](C)N(C)C(=O)C[C@@H](C(=O)N[C@H](C(=O)N2CCCCC2)[C@@H](C)CC)NC(=O)[C@H](CC(C)C)N(C)C(=O)[C@H]([C@@H](C)O)NC(=O)[C@H](CO)NC1=O [DP-956] ([dNMeA][NMeF][NMeA][NMeL][NMeL]F[NMeL][NMeA]IST[NMeL]DI-Piperidide; lactam N-13)
40
